Test system: A0A140T8K0
Settings: stereoisomer not certain
ATTRIBUTE MEASURED: odorant receptor agonist call

COMPOUND: COc1cnccn1
TEST SYSTEM: A0A140T8K0
odorant receptor agonist call: inactive

COMPOUND: CC(C)=C1CCC(C)CC1=O (stereo unspecified)
TEST SYSTEM: A0A140T8K0
odorant receptor agonist call: inactive

COMPOUND: CC=Cc1ccc(OC)cc1
TEST SYSTEM: A0A140T8K0
odorant receptor agonist call: inactive

COMPOUND: CC(=O)OC1(C)CCC23CC1C(C)(C)C2CCC3C (stereo unspecified)
TEST SYSTEM: A0A140T8K0
odorant receptor agonist call: inactive

COMPOUND: C=C(C)C1CCC2(C)OC2C1 (stereo unspecified)
TEST SYSTEM: A0A140T8K0
odorant receptor agonist call: inactive

Ask: Form field - read-out: odorant receptor agonist call; system: A0A140T8K0; submitted item: CCC=CCCCCC=O
Reply: inactive

Ask: Form field - read-out: odorant receptor agonist call; system: A0A140T8K0; submitted item: CCOC(=O)C(C)CC (stereo unspecified)
Reply: inactive

Ask: Form field - read-out: odorant receptor agonist call; system: A0A140T8K0; submitted item: CCSCC
Reply: inactive

Ask: Form field - read-out: odorant receptor agonist call; system: A0A140T8K0; submitted item: CCCCCCCCCC(=O)[O-].[H+]
Reply: inactive

Ask: Form field - read-out: odorant receptor agonist call; system: A0A140T8K0; submitted item: CCCCCCC(C)O (stereo unspecified)
Reply: inactive

Ask: Form field - read-out: odorant receptor agonist call; system: A0A140T8K0; submitted item: O=C1Cc2ccccc2O1
Reply: inactive

Ask: Form field - read-out: odorant receptor agonist call; system: A0A140T8K0; submitted item: CCCCCCCOC(=O)C(C)C
Reply: inactive

Ask: Form field - read-out: odorant receptor agonist call; system: A0A140T8K0; submitted item: CSSCc1ccco1
Reply: inactive

Ask: Form field - read-out: odorant receptor agonist call; system: A0A140T8K0; submitted item: Cc1ccccc1OC(=O)C(C)C
Reply: inactive

Ask: Form field - read-out: odorant receptor agonist call; system: A0A140T8K0; submitted item: CCc1ccc(O)cc1
Reply: inactive

Ask: Form field - read-out: odorant receptor agonist call; system: A0A140T8K0; submitted item: CC(C)CS
Reply: inactive

Ask: Form field - read-out: odorant receptor agonist call; system: A0A140T8K0; submitted item: O=C(O)CCCCCBr
Reply: inactive

Ask: Form field - read-out: odorant receptor agonist call; system: A0A140T8K0; submitted item: CC1CC=CCCCCCCCCCC(=O)C1 (stereo unspecified)
Reply: inactive

Ask: Form field - read-out: odorant receptor agonist call; system: A0A140T8K0; submitted item: C=C(C)C1CCC(C)C(O)C1 (stereo unspecified)
Reply: inactive

Ask: Form field - read-out: odorant receptor agonist call; system: A0A140T8K0; submitted item: CCCCCOC(=O)CC
Reply: inactive

Ask: Form field - read-out: odorant receptor agonist call; system: A0A140T8K0; submitted item: Cc1ccc2c(c1)OCC(=O)CO2
Reply: inactive

Ask: Form field - read-out: odorant receptor agonist call; system: A0A140T8K0; submitted item: OCC=Cc1ccccc1
Reply: inactive

Ask: Form field - read-out: odorant receptor agonist call; system: A0A140T8K0; submitted item: CC(=O)C1(C)CC2=C(CCCC2(C)C)CC1C (stereo unspecified)
Reply: inactive

Ask: Form field - read-out: odorant receptor agonist call; system: A0A140T8K0; submitted item: CCCCCC(C)O (stereo unspecified)
Reply: inactive
